Data origin: paper PMC7033111

biological target: UniProt:P22303
Reported Endpoint: pIC50
Scale: pIC50 equals -log10([C]), with [C] in mol/L.

Here's what some known entries look like.
COc1cccc2onc(CCC3CCN(CC4CCCCC4)CC3)c12 [Compound 32a]    7.20
c1cc(OC2CCCC2)c2c(CCC3CCN(CC4CCCCC4)CC3)noc2c1 [Compound 32d]    6.00
COc1cccc2onc(OCC3CCN(Cc4ccccc4)CC3)c12    6.03
c1ccc2c(CCC3CCN(CC4CCCCC4)CC3)noc2c1    6.62
Oc1cccc2onc(CCC3CCN(CC4CCCCC4)CC3)c12    7.01
COc1cccc2onc(OCC3CCN(CC4CCCCC4)CC3)c12    6.36

Field: next compound
Provide pIC50, recorded with UniProt:P22303, of CCOc1cccc2onc(CCC3CCN(CC4CCCCC4)CC3)c12 [Compound 32b]
6.70

###

target: human 5-HT4R (5-HT4(b) receptor membranes) (Homo sapiens, UniProt Q13639); construct: purchased Millipore HTS110M; test: h5-HT4R competition binding with [3H]-GR113808; settings: 10^−6 M compound; 0.2 nM [3H]-GR113808; read-out: h5-HT4R % inhibition at 10^−6 M (converted)
Sequence (Q13639 whole entry): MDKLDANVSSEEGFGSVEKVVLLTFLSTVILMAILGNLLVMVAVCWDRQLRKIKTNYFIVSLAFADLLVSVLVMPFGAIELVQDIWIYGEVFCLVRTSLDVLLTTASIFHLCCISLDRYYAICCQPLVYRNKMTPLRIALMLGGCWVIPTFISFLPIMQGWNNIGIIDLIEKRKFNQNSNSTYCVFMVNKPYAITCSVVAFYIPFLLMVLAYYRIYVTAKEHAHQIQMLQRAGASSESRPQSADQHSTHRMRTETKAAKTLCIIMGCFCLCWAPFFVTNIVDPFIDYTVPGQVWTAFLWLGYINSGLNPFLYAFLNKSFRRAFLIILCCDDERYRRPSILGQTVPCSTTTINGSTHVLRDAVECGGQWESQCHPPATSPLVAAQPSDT
Reported Endpoint: inhibition
Answer as a quantity: numeral, then unit.

CC(C)COc1cccc2onc(CCC3CCN(CC4CCCCC4)CC3)c12 [Compound 32c]    100%
c1ccc(CN2CCC(COc3noc4ccccc34)CC2)cc1 [Compound 12]    99%
CCOc1cccc2onc(CCC3CCN(CC4CCCCC4)CC3)c12 [Compound 32b]    100%
COc1cccc2onc(OCC3CCN(Cc4ccccc4)CC3)c12 [Compound 15]    100%
c1ccc(CN2CCC(CCc3noc4ccccc34)CC2)cc1 [Compound 22]    78%

Turning to the following compound.
Send back human 5-HT4R (5-HT4(b) receptor membranes) (Homo sapiens, UniProt Q13639) inhibition of c1ccc2c(CCC3CCN(CC4CCCCC4)CC3)noc2c1 [Compound 21] only.
89%

###

biological target: human 5-HT4R (5-HT4(b) receptor membranes) (Homo sapiens, UniProt Q13639)
Threshold 40 nM. Ki below it: true (1). Ki at it or above: false (0).

Worked examples, 8 molecules total:
c1ccc(CN2CCC(CCc3noc4ccccc34)CC2)cc1    false (0)
c1cc(OC2CCCC2)c2c(CCC3CCN(CC4CCCCC4)CC3)noc2c1 [Compound 32d]    false (0)
CC(C)CN1CCC(COc2noc3ccccc23)CC1    true (1)
COc1cccc2onc(OCC3CCN(CC(C)C)CC3)c12    true (1)
COc1cccc2onc(OCC3CCN(CC4CCCCC4)CC3)c12    true (1)
CC(C)COc1cccc2onc(CCC3CCN(CC4CCCCC4)CC3)c12 [Compound 32c]    false (0)
c1ccc2c(CCC3CCN(CC4CCCCC4)CC3)noc2c1    false (0)
CCOc1cccc2onc(CCC3CCN(CC4CCCCC4)CC3)c12 [Compound 32b]    false (0)

API: query returns whether the molecule falls strictly under 40 nM in Ki. Query: "COc1cccc2onc(OCC3CCN(Cc4ccccc4)CC3)c12"
true (1)

Say whether its Ki is strictly beneath 40 nM. Entry: c1ccc(COc2cccc3onc(CCC4CCN(CC5CCCCC5)CC4)c23)cc1 [Compound 32e]
false (0)

In plain terms, does "Oc1cccc2onc(CCC3CCN(CC4CCCCC4)CC3)c12" come in under 40 nM for Ki?
true (1)

Could you please tell me whether Ki recorded for COc1cccc2onc(CCC3CCN(CC4CCCCC4)CC3)c12 [Compound 32a] is less than 40 nM?
false (0)

Is Ki strictly under 40 nM for the entry "c1ccc2c(OCC3CCN(CC4CCCCC4)CC3)noc2c1" ?
true (1)

State whether 40 nM exceeds Ki recorded for "c1ccc(CN2CCC(COc3noc4ccccc34)CC2)cc1" .
false (0)

###

target: hAChE (AChE from human erythrocytes) (Homo sapiens); construct: AChE from human erythrocytes; purchased Sigma Aldrich; host or cells: human erythrocytes (tissue-derived enzyme); experiment: hAChE inhibition, spectrometric Ellman method; format: biochemical; settings: 10^−6 M compound
Sequence (P22303 other isoform, or with tags, fused parts or gaps): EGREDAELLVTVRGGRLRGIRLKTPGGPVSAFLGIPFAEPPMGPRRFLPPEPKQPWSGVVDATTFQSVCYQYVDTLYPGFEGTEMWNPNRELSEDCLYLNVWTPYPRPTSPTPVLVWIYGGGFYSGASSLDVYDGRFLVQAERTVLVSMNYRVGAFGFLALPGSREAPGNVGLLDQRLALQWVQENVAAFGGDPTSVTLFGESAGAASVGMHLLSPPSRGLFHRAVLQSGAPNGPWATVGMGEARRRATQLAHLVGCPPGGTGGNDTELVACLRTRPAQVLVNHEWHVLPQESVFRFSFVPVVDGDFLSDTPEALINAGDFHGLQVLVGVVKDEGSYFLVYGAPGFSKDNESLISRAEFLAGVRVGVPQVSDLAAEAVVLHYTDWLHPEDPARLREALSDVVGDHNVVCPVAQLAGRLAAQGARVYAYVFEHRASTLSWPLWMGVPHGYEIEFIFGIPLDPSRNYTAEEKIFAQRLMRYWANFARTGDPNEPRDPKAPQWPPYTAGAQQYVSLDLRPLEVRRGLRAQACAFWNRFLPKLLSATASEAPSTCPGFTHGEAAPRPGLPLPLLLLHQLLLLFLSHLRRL
Reported Endpoint: inhibition at 1 µM (%)
Give the quantity in %, number only.

# example entries with known answers
c1ccc2c(OCC3CCN(CC4CCCCC4)CC3)noc2c1 [Compound 11]    24
COc1cccc2onc(OCC3CCN(CC(C)C)CC3)c12 [Compound 16]    23
CC(C)CN1CCC(CCc2noc3ccccc23)CC1 [Compound 23]    11
CCOc1cccc2onc(CCC3CCN(CC4CCCCC4)CC3)c12 [Compound 32b]    87
Oc1cccc2onc(CCC3CCN(CC4CCCCC4)CC3)c12 [Compound 33]    87

Consider the molecule c1ccc(COc2cccc3onc(CCC4CCN(CC5CCCCC5)CC4)c23)cc1 [Compound 32e] and give its recorded inhibition at 1 µM.
10

Please indicate inhibition at 1 µM recorded for c1cc(OC2CCCC2)c2c(CCC3CCN(CC4CCCCC4)CC3)noc2c1 [Compound 32d]
52

Specify measured inhibition at 1 µM for CC(C)COc1cccc2onc(CCC3CCN(CC4CCCCC4)CC3)c12 [Compound 32c] .
42

Quickly give me recorded inhibition at 1 µM for c1ccc2c(CCC3CCN(CC4CCCCC4)CC3)noc2c1 [Compound 21]
84

###

target: HA-tagged human 5-HT4 receptor (Homo sapiens); construct: HA; expressed in transfected cells; host or cells: COS-7 cells (ATCC CRL-1651), transient transfection; assay: cAMP production, competition assay in antagonist mode vs serotonin, transfected COS-7 cells; format: cell-based; conditions: IC50 (5-HT4R antagonist, cAMP production), COS-7 cells; serotonin 5.10^−7 M; mean of three experiments
Reported Endpoint: pIC50
Keep it numeric: pIC50 is minus log10 of the concentration in mol/L.

Previously resolved entries follow.
COc1cccc2onc(OCC3CCN(CC(C)C)CC3)c12 [Compound 16]    8.25
COc1cccc2onc(CCC3CCN(CC4CCCCC4)CC3)c12 [Compound 32a]    7.01

// Input: Oc1cccc2onc(CCC3CCN(CC4CCCCC4)CC3)c12 [Compound 33] . Output its pIC50 only.
6.05

###

biological target: HA-tagged human 5-HT4 receptor (Homo sapiens, UniProt Q13639); construct: HA; expressed in transfected cells; host or cells: COS-7 cells (ATCC CRL-1651), transient transfection; assay: cAMP production, agonist mode, transfected COS-7 cells; format: cell-based; conditions: EC50, agonist mode; Moy. (mean of HP5-HP7); unit inferred
Sequence (Q13639 whole entry): as the sequence (Q13639 whole entry) above
Reported Endpoint: pEC50
// field semantics: pEC50 = negative decimal log of concentration (mol/L)

Output pEC50 of COc1cccc2onc(CCC3CCN(CC4CCCCC4)CC3)c12 [Compound 32a]
4.95

###

Listing of entries alongside the reported inhibition.
biological target: human 5-HT4R (5-HT4(b) receptor membranes) (Homo sapiens, UniProt Q13639); construct: purchased Millipore HTS110M; test: h5-HT4R competition binding with [3H]-GR113808; conditions: 10^−6 M compound; 0.2 nM [3H]-GR113808; read-out: h5-HT4R % inhibition at 10^−6 M (converted)
Please give a number only; it is taken to be in %.

CC(C)CN1CCC(CCc2noc3ccccc23)CC1    87
Oc1cccc2onc(CCC3CCN(CC4CCCCC4)CC3)c12    100
COc1cccc2onc(OCC3CCN(CC4CCCCC4)CC3)c12    100
c1ccc(COc2cccc3onc(CCC4CCN(CC5CCCCC5)CC4)c23)cc1 [Compound 32e]    96

System human 5-HT4R (5-HT4(b) receptor membranes) (Homo sapiens, UniProt Q13639). Read-out inhibition. Item "COc1cccc2onc(OCC3CCN(CC(C)C)CC3)c12" . Report value.
100

###

target: hAChE (AChE from human erythrocytes) (Homo sapiens); construct: AChE from human erythrocytes; purchased Sigma Aldrich; host or cells: human erythrocytes (tissue-derived enzyme); assay: hAChE inhibition, spectrometric Ellman method; type: biochemical; details: 10^−6 M compound
Reported Endpoint: inhibition at 1 µM

A selection of reference data follows.
COc1cccc2onc(OCC3CCN(Cc4ccccc4)CC3)c12    82%
COc1cccc2onc(OCC3CCN(CC4CCCCC4)CC3)c12    82%
COc1cccc2onc(CCC3CCN(CC4CCCCC4)CC3)c12 [Compound 32a]    94%

Now for a further molecule.
Return value of inhibition at 1 µM for input "CC(C)CN1CCC(COc2noc3ccccc23)CC1" , no commentary.
8%
